Molecular target: KDM5A (Homo sapiens)
Construct: Full length KDM5A enzyme was expressed and purified inhouse; made in house
Sequence (P29375 whole entry): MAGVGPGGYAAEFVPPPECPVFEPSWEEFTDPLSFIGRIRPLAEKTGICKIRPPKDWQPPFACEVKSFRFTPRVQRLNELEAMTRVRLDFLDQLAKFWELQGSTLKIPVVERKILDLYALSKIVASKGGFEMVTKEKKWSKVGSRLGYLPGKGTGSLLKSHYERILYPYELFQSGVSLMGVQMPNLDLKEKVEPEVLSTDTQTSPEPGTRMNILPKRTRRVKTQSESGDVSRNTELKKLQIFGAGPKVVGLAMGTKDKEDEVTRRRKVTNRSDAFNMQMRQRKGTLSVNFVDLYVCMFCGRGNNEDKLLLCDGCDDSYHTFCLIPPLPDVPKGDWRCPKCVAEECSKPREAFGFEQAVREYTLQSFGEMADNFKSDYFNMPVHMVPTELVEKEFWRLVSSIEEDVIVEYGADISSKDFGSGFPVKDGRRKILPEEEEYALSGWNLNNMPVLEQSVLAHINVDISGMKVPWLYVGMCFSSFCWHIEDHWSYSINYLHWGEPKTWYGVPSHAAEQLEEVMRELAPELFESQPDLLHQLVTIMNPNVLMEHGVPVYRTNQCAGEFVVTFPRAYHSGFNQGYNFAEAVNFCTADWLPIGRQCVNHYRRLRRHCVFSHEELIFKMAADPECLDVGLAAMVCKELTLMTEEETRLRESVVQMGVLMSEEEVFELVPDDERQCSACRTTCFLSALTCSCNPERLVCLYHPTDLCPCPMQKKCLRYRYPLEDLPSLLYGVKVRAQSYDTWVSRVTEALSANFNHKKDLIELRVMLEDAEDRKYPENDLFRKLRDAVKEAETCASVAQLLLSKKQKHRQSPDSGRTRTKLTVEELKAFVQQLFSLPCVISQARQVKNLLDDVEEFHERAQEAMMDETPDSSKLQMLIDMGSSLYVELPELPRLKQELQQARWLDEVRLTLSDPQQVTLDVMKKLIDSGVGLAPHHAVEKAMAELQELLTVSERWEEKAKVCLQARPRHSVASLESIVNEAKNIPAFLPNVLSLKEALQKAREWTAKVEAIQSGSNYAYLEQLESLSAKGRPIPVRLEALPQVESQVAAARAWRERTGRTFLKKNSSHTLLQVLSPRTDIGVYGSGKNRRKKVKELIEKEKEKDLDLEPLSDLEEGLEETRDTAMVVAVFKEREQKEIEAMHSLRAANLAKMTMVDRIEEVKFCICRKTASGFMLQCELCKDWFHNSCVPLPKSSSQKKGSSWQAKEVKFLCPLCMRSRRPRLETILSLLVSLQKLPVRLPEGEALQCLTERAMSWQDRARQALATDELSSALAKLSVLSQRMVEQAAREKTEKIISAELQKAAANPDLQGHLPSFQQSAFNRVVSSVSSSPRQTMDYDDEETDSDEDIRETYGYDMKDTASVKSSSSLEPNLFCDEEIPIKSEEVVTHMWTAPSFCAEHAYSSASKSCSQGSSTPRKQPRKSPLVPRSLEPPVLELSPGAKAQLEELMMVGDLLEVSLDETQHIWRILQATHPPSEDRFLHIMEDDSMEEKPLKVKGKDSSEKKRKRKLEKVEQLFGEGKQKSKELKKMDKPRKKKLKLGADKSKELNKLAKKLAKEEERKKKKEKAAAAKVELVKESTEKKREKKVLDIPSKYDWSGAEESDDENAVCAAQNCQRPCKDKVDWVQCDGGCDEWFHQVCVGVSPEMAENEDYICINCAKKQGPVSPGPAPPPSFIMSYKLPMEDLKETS
Assay: KDM5 enzyme assay, KDM5A HTRF (Example 463)
Format: biochemical
Details: compounds of Examples 1-432; read-out: Example 463 Assay KDM5A HTRF IC50
property: pIC50
pIC50 (log units): -log10 of the concentration in mol/L.

# smilesRepresentation, property, measuredResult
data = [
    ("COc1ccc(-c2[nH]c3c(C#N)cnn3c(=O)c2C(C)C)cc1", "pIC50", 7.89),
    ("CC(C)c1c(-c2ccc(=O)n(C)c2)n(C)c2c(C#N)cnn2c1=O", "pIC50", 6.62),
]

pIC50 for CC(C)c1c(-c2cccc(CNS(C)(=O)=O)c2)[nH]c2c(C#N)cnn2c1=O is 7.85
